Target or system Adenosine receptor A1 (Rattus norvegicus, UniProt P25099): recorded Ki listed per item.
Write down the numeric answer in nM and omit the unit.

INPUT: What Ki value was documented for this compound, CCCn1c(=O)c2nc(-c3ccc(OCC(=O)NCCNC(=O)CCCCC4SCC5NC(=O)NC54)cc3)[nH]c2n(CCC)c1=O (stereo unspecified) ?
OUTPUT: 54

INPUT: Ki lookup needed for CCCn1c(=O)c2nc(-c3ccc(OCC(=O)NCCCCCCCCN)cc3)[nH]c2n(CCC)c1=O , thanks.
OUTPUT: 5

INPUT: // query Ki value for entry Cc1ccc(NC(=O)COc2ccc(-c3nc4c(=O)n(C)c(=O)n(C)c4[nH]3)cc2)cc1
OUTPUT: 26

INPUT: Which Ki is reported for this compound? CCCn1c(=O)c2nc(-c3ccc(OCC(=O)NCCNC(C)=O)cc3)[nH]c2n(CCC)c1=O
OUTPUT: 24

INPUT: What measured Ki goes with CCCn1c(=O)c2nc(-c3ccc(OCC(=O)Nc4ccc(O)cc4)cc3)[nH]c2n(CCC)c1=O ?
OUTPUT: 4.1

INPUT: Any idea what Ki was measured for CCCn1c(=O)c2nc(-c3ccc(OCC(=O)N(C(=O)NC4CCCCC4)C4CCCCC4)cc3)[nH]c2n(CCC)c1=O ?
OUTPUT: 96

INPUT: What value of Ki has been reported for the following compound? CCCn1c(=O)c2nc(-c3ccc(OCC(=O)Nc4ccc(C)cc4)cc3)[nH]c2n(CCC)c1=O
OUTPUT: 36

INPUT: Value lookup for Ki; key = Cn1c(=O)c2nc(-c3ccc(OCC(=O)O)cc3)[nH]c2n(C)c1=O
OUTPUT: 500

INPUT: What Ki value was documented for this compound, CCCn1c(=O)c2nc(-c3ccc(OCC(=O)NN)cc3)[nH]c2n(CCC)c1=O ?
OUTPUT: 59

INPUT: What measured Ki goes with CCCn1c(=O)c2nc(-c3ccc(OCC(=O)N(C)C)cc3)[nH]c2n(CCC)c1=O ?
OUTPUT: 32

INPUT: Request the reported Ki associated with CC(=O)O.CCCn1c(=O)c2nc(-c3ccc(OCC(=O)NCCN(CC)Cc4ccc(O)cc4)cc3)[nH]c2n(CCC)c1=O
OUTPUT: 2.2
